Test system: K-562 leukemia
Assay Procedure: NCI-60 one-dose screen, 48 h (100 = growth as untreated, 0 = no growth, -100 = all killed)
Measurement Context: 10 µM unless noted
About 83,000 compounds went through this panel and 20% of them were active in at least one assay; those are over-represented in the sample as a whole.
Observable: growth (%)
Answer with a number only, understood to be in %.

Record request: growth value, item `COc1ccc(-c2nc(-c3nc4ccc(F)cc4[nH]3)cc3c2[nH]c2ccccc23)cc1`
20.3

Same read-out for `CC(C)C[C@H](NC(=O)[C@H](Cc1ccccc1)n1ccc(N2CCCCC2)cc1=O)B(O)O` ?
9.62

Same read-out for NC(CC(N)C(=O)O)C(=O)O (stereo not given) ?
91.8

Same read-out for `CCN(CC)S(=O)(=O)c1ccc2[nH]c(=O)cc(C(=O)Nc3ccc(OC)cc3OC)c2c1` ?
115

Same read-out for `CCCCCC/C=C\CCCCCCCCOc1ccc(CCOP(=O)(O)OCC[N+](C)(C)C)cc1` ?
74.8

Same read-out for `CC/C=C\C[C@H](O)C/C=C1/C(=O)C(Cl)=C[C@@H]1C/C=C\CCCC(=O)O` ?
3.74

Same read-out for `O=C(NNC(=S)Nc1ccccc1)c1ccccn1` ?
28.6

Same read-out for `CCNC(=O)CCCCC(=O)c1c(C)[nH]c(/C=C2\N=C(c3ccc[nH]3)C=C2OC)c1C` ?
51.5

Same read-out for `O=C1c2ccccc2C(=O)c2c1oc1oc3c(c(=O)c21)c(=O)n(-c1ccccc1)c1ccccc31` ?
26.8

Same read-out for `CCSc1nnc(NC(=O)COc2ccc(Cl)cc2C)s1` ?
103

Same read-out for Nc1nc(N)c2nc(CNc3ccc(C(=O)CC(CCC(=O)O)C(=O)O)cc3)cnc2n1 (stereo not given) ?
58.3

Same read-out for COC(=O)[C@H]1[C@H](OC)[C@@H](OC(=O)/C=C/c2ccncc2)CC2CN3CCc4c([nH]c5cc(OC)ccc45)[C@@H]3C[C@@H]21 (stereo not given in full) ?
57.3

Same read-out for CCN1C(=O)/C(=c2\sc3n(c2=O)C2C(NN=3)N(CC)C(=S)N2CC)c2ccccc21 (stereo not given) ?
98

Same read-out for `N#Cc1ncc(-c2ccc(F)c(F)c2F)c(NC2CCCCCC2)n1` ?
76.8

Same read-out for `Cc1ccc(Oc2nc3ccccc3cc2-c2nnc(Cn3c(COc4ccccc4)nc4ccccc43)o2)cc1` ?
-3.18

Same read-out for COc1ccc(C2CC(c3cccs3)=NN2c2ccc(S(=O)(=O)NC(=O)NCc3cccc(OC)c3)cc2)cc1 (stereo not given) ?
111

Same read-out for `Clc1nc(Cl)c2ncn(C/C=C/Cn3cnc4c(Cl)nc(Cl)nc43)c2n1` ?
17.4

Same read-out for CCN1C(=O)N(CC)C2C1NN=c1s/c(=C3\C(=O)N(C4CCCC4)c4ccccc43)c(=O)n12 (stereo not given) ?
4.67

Same read-out for `Cc1sc2nc(CSc3nnc(-c4ccco4)o3)[nH]c(=O)c2c1C` ?
75.6

Same read-out for `O=S=Nc1ccc([N+](=O)[O-])cc1` ?
75.6

Same read-out for `CCOC(=O)CC(C#N)(CC(=O)OCC)C(=O)OCC` ?
111

Same read-out for `Nc1nc(-c2cc3ccccc3o2)cc(=O)c(=O)[nH]1` ?
103

Same read-out for `CN1CCN(CCCOc2ccc3nc(Nc4ccc(C(F)(F)F)c(Cl)c4)ccc3c2)CC1` ?
-47.2

Same read-out for `COc1cccc(/C=C2\SC(N3CCN(c4ccccn4)CC3)=NC2=O)c1` ?
82.2

Same read-out for `COc1cc(/C=C2\C=C(c3ccc(F)cc3)N(Cc3ccccc3)C2=O)cc(OC)c1OC` ?
56.1

Same read-out for `CCO/C=N/NC(=O)c1ccncc1` ?
108

Same read-out for `COc1cc(C(=O)CCCl)ccc1O` ?
97.4

Same read-out for `C/C(=N\NC(=O)CC#N)c1cc2cc(Cl)ccc2o1` ?
96.6

Same read-out for `CC(=O)Nc1nc(C(=O)N2N=C(C)/C(=C/c3cccs3)C2=O)cs1` ?
102

Same read-out for `COc1cc(Cn2c(SCCC(=O)Nc3ccc(F)cc3)nc3ccccc3c2=O)cc(OC)c1OC` ?
70.8

Same read-out for `COc1ccc(/C=C2\C(=O)N(C(=O)c3csc(NC(C)=O)n3)N=C2C)cc1` ?
95.3

Same read-out for `CCCCCCCCCCCCCCCCCCOc1cccc(CCOP(=O)(O)OCC[N+](C)(C)C)c1` ?
116

Same read-out for `COc1cc(Cn2c(SCC(=O)Nc3cc(OC)c(OC)c(OC)c3)nc3ccccc3c2=O)cc(OC)c1OC` ?
97.4

Same read-out for `Nc1c(C(=O)Nc2cccc(Cl)c2Cl)sc2nc3c(cc12)C(=O)CCC3` ?
42.1

Same read-out for `COc1ccc(-c2cn[nH]c2-c2cc(OC)c3c(c2)OCCO3)cc1` ?
9.59

Same read-out for `O=C1C2=C(C(=O)c3c(O)ccc(O)c31)N(c1cccnc1)Cc1ccccc1O2` ?
-9.44

Same read-out for `COC(=O)CCCCCCN=Cc1c(O)c(O)c(C(C)C)c2cc(C)c(-c3c(C)cc4c(C(C)C)c(O)c(O)c(C=NCCCCCCC(=O)OC)c4c3O)c(O)c12` ?
10.5

Same read-out for `N#Cc1c(NC(=O)c2ccc([N+](=O)[O-])o2)[n+]([O-])c2cc(F)c(F)cc2[n+]1[O-]` ?
92.2

Same read-out for C#CCC1(c2ccc(F)c(F)c2)NS(=O)(=O)c2ccccc21 (stereo not given) ?
89.4

Same read-out for `COc1ccc(-c2nc3sccn3c2-c2ccnc(NCCCNS(=O)(=O)c3ccc(C)cc3)n2)cc1` ?
19.9
